TEST PROTOCOL: Cytotoxicity against MDBK cells after 3 days by MTS/PMS assay
Format: cell-based, Bos taurus
COND: cattle
Label rule met when CC50 at 72 h < 100 µM; otherwise rule not met.

{"columns": ["SMILES STR", "CAT"],
 "data": [
  ["COc1ccc2c(c1OC)CC/C2=N\\NC(N)=S", "rule not met"],
  ["Cc1cc(C)c2c(c1)CC/C2=N\\NC(N)=S", "rule met"],
  ["Cc1cc2c(c(C)c1Cl)CC/C2=N\\NC(N)=S", "rule met"],
  ["COc1ccc2c(c1)CC/C2=N\\NC(N)=S", "rule not met"],
  ["COc1cc2c(cc1OC)/C(=N/NC(N)=S)CC2", "rule not met"],
  ["COc1ccc2c(c1)/C(=N/NC(N)=S)CC2", "rule not met"],
  ["Cc1cccc2c1CC/C2=N\\NC(N)=S", "rule not met"],
  ["NC(=S)N/N=C1\\CCc2ccccc21", "rule not met"]
]}
